src = PubChem BioAssay (NCI)

Tested on: OVCAR-3 ovarian
Assay: NCI-60 one-dose screen, 48 h (100 = growth as untreated, 0 = no growth, -100 = all killed)
Details: 10 µM unless noted
Compounds without any hit were thinned out: in the full panel of roughly 83,000, 20% have a hit.
We use 90% as the dividing line for growth: on or above the line is True, below is False.

Worked examples follow.
molecule	discrete label
Cn1cc(C2=C(c3coc4cc(Br)ccc34)C(=O)NC2=O)c2ccccc21	False
C[C@H]1OCC2(CCN(c3cnc(C(=O)Nc4cc(F)cc5cccnc45)cn3)CC2)[C@H]1N	False
Nc1nc(=O)n([C@H]2C[C@H](O)[C@@H](CO)O2)cc1C=O	True
O=C(CSc1nc2ccccc2c(=O)n1-c1ccccc1)N/N=C/c1ccc(Oc2ccc(Br)cc2)cc1	True
CN1CCN(c2ccc(Nc3nc(NCCNC(=O)c4ccc(F)cc4)c4sccc4n3)cc2)CC1	False
NC1CC2(CCN(c3cnc(C(=O)Nc4cc(F)cc5cccnc45)cn3)CC2)C1	False
CCCN1C=C/C(=C\C(=O)n2ccc3ccccc32)c2ccccc21	False
COc1ccc(C(=O)c2c(N)c(C#N)cn2-c2ccc(Cl)cc2Cl)cc1	True

## Task Assess whether reported growth for "CCN(CC)CCOc1ccc(C(=C(C)Cc2ccc(OC)cc2)c2ccc(OCCN(CC)CC)cc2)cc1" sits at 90% or higher.
## Result False

## Task Threshold query (growth >= 90%) on "CC(=C(c1ccc(OCCN2CCCC2)cc1)c1ccc(OCCN2CCCC2)cc1)c1ccc(Cl)cc1"
## Result False

## Task hey, is growth for this one >= 90%? "O=C(CCCCCCNC(=O)C(O)(O)C(F)(F)F)Nc1ccc(-c2ccccc2)cc1"
## Result False

## Task Entry "CCCNNC(=O)c1ccc(-c2ccc(NC(=O)CCCCCCC(=O)N[C@H](C(=O)N3C[C@H](O)C[C@H]3C(=O)N[C@@H](C)c3ccc(-c4scnc4C)cc3)C(C)(C)C)cc2)cc1" : is its growth no less than 90%?
## Result False

## Task Is the recorded value of growth equal to or greater than 90% for this molecule? "N#Cc1cnc2ccc(-c3cnc4n[nH]nc4c3)cc2c1N1CCc2cc(F)c(Cl)cc21"
## Result False

## Task In plain terms: is recorded growth at least 90% for "Cc1csc(/N=C(N)/N=C(\N)c2cccc(Br)c2)n1" ?
## Result True
